Target: UmuDAb HTH1 (Acinetobacter baumannii ATCC 17978 JH, UniProt A0A0D5YJU0 1-203, E24K)
Assay: EMSA; Hill 6.1; 94% bound; […] (10x = 100 mM Tris, 500 mM KCl, 10 mM DTT, […]
Details: protein: recombinant; chain copies: 2; label: 5' IRDye700 on both strands; blunt
pKd: −log10 of the molar value.
Attribute Measured: pKd

WT 37 bp UmuDAb operator probe (dsDNA) DNA 1: TCGTCAACTTGAAAATGTAACTTTTTCAAGTTACATT DNA 2: AATGTAACTTGAAAAAGTTACATTTTCAAGTTGACGA; 7.00

Cited source: paper PMC11332147
